System: isolated neonatal rat ventricular cardiac myocytes (NRVM)
Assay: Surface area (hypertrophy) of isolated NRVM, immunocytochemistry and morphometry (Examples 1-2)
Assay type: cell-based
Test context: 48 h FGF2, inhibitor pre-treated 60 min at Table 2 concentration
Value type: FGF2-induced increase in cell surface area (hypertrophy) in presence of inhibitor

Molecule: COc1cccc(-c2cc(=O)c3ccccc3o2)c1N [PD98059]
Observed: completely prevented
//
Molecule: N#CC(=C(/N)Sc1ccccc1N)/C(C#N)=C(\N)Sc1ccccc1N [U0126]
Observed: completely prevented
